Ref: PubChem BioAssay AID1769

# TESTED TARGET: glutathione S-transferase (Schistosoma japonicum GST tag binding GSH beads)
# MEASUREMENT NOTES: GST–glutathione bead interaction interference profiling – biochemical, multiplex beads, flow cytometry, profiling panel (AID 1769);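 note: target is a GST and green fluorescent protein fusion captured on glutathione beads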
# CONDITIONS USED: flow cytometry fluorescence
REPORTED ENDPOINT: EC50

Illustrative cases are given below, each with its answer.
compound=Cc1cc2[nH]c3c(c[n+](C)c4ccccc34)c2cc1C tested_target="glutathione S-transferase (Schistosoma japonicum GST tag binding GSH beads)" data_value="9.45 µM"
compound=COc1cccc2cc(-c3ccnc(=S)[nH]3)oc12 tested_target="glutathione S-transferase (Schistosoma japonicum GST tag binding GSH beads)" data_value="28.8 µM"
compound=Cc1cc(-c2nnc3n2N=C(c2ccc(-c4ccccc4)cc2)CS3)n[nH]1 tested_target="glutathione S-transferase (Schistosoma japonicum GST tag binding GSH beads)" data_value="6.8 µM"
compound=Cc1ccc(Nc2nc(-c3c(C)nc4ncccn34)cs2)cc1 tested_target="glutathione S-transferase (Schistosoma japonicum GST tag binding GSH beads)" data_value="34.8 µM"
compound=O=c1c2ccccc2nc2c3ccccc3c(NCc3ccccn3)nn12 tested_target="glutathione S-transferase (Schistosoma japonicum GST tag binding GSH beads)" data_value="3.76 µM"

Exercise: Any idea what EC50 was measured for N#Cc1c(Nc2ccccc2)c(/C=N/N=C/c2ccccc2)c[nH]c1=O ?
Key: 4.1 µM

Exercise: # input compound: O=C(N/N=C/c1ccco1)c1ccc(C(=O)N/N=C/c2ccco2)o1 ; wanted: its EC50
Key: 19.4 µM

Exercise: Report EC50 for COc1ccc(-c2cc(-c3ccc(O)cc3)nc(N)c2C#N)cc1OC please.
Key: 11.5 µM

Exercise: // returns reported EC50 for input O=c1c2ccccc2nc2c3ccccc3c(NCc3cccnc3)nn12
Key: 0.348 µM

Exercise: // returns reported EC50 for input Cc1cc(N/N=C/c2ccc(O)cc2O)nc(-n2nc(C)cc2C)n1
Key: 0.831 µM

Exercise: Item O=C(Cc1ccc(Nc2nc(=S)[nH]c3ccccc23)cc1)NC1CCCCC1 has what recorded EC50?
Key: 6.65 µM

Exercise: Suppose we examine the compound COc1ccccc1Nc1nc(-c2c(C)nc3ncccn23)cs1 ; what EC50 value has been reported?
Key: 12.2 µM

Exercise: What does the record list as EC50 for CCOC(=O)c1cc(C(=O)OCC)c(=O)[nH]c1N1CCCC1 ?
Key: 35.9 µM

Exercise: # lookup: EC50 of Nc1c([N+](=O)[O-])cc(-c2cnc[nH]2)cc1[N+](=O)[O-]
Key: 0.391 µM

Exercise: # lookup: EC50 of COc1ccc(S(=O)(=O)N2CCCCC2)cc1NC(=O)c1ccc([N+](=O)[O-])o1
Key: 28.6 µM

Exercise: Which EC50 value belongs to O=C(OCC1O[C@@H](OC(=O)c2cc(O)c(O)c(O)c2)[C@@H](OC(=O)c2cc(O)c(O)c(O)c2)[C@@H](OC(=O)c2cc(O)c(O)c(O)c2)[C@@H]1OC(=O)c1cc(O)c(O)c(O)c1)c1cc(O)c(O)c(O)c1 (stereo partly specified) ?
Key: 0.951 µM

Exercise: Name the reported EC50 value associated with the compound COc1cc2nc(=S)n(CCCN3CCOCC3)c(N)c2cc1OC
Key: 11 µM

Exercise: Can you look up the measured EC50 of Cc1c(CCC(=O)O)c(=O)oc2cc3occ(-c4ccc(F)cc4)c3cc12 for me?
Key: 70.5 µM

Exercise: # EC50 lookup, item CN1CCN(S(=O)(=O)c2cccc(C(=O)Nc3sc4c(c3C(N)=O)CCCC4)c2)CC1
Key: 19.8 µM

Exercise: Report EC50 for COc1ccc(NC(=O)c2cc3nc(-c4ccccc4)cc(C)n3n2)cc1OC please.
Key: 2.85 µM

Exercise: # input compound: O=C(C[n+]1cccc2ccccc21)c1ccc(NC(=O)c2ccccc2)cc1 ; wanted: its EC50
Key: 10.2 µM
